molecular target: HLA-B*57:01; assay: IEDB peptide-MHC binding, purified MHC/competitive/radioactivity; bounds were set here for any values at or beyond the usual limits of such assays; details: source organism: Bordetella pertussis
property-name: IC50 (nM)
State the answer as a number, implicitly in nM.

sequence WTFHAGYRY , IC50 observed: 1400

---

biological target: HLA-B*07:02; experiment: IEDB peptide-MHC binding, purified MHC/competitive/radioactivity; bounds were set here for any values at or beyond the usual limits of such assays; settings: source organism: Bordetella pertussis
In this section, each of the sequences is paired with its reported IC50.
State the answer as a number, implicitly in µM.

sequence PASANTLLL , IC50 observed: 15.7

sequence RVAPPAVAL , IC50 observed: 0.349

sequence GATRAVDSL , IC50 observed: 69.6
